Ref: PubChem BioAssay AID2629

study.system: Protein LANA1 (Human herpesvirus 8 type P (isolate GK18))
protocol.details: blockers of LANA interaction with H2A/H2B – biochemical, FP readout, HTS, primary screen (AID 2629)
cond: cell-free LANA-H2A/H2B peptide, fluorescence polarization, stronger effect = higher value, concentration not given here
Hit rate of the full screen: of about 320,000 compounds, about 1,900 (0.59%) were called active. What follows is part of a selection rich in actives, with near analogues and random picks from the rest.
Recorded inhibition values for a group of molecules are listed next.
Value expressed in %; do not type the unit.

// below: answered molecules
>  <molecule>
COc1ccc(C)cc1Nc1nc(-c2c(C)[nH]c3ccccc23)cs1

>  <study.system>
Protein LANA1 (Human herpesvirus 8 type P (isolate GK18))

>  <unit.label>
%

>  <result.value>
39.5

$$$$
>  <molecule>
Cc1cccc(NS(=O)(=O)c2ccc(C)c(C(=O)NCC(c3ccccc3)N(C)C)c2)c1 (stereo unspecified)

>  <study.system>
Protein LANA1 (Human herpesvirus 8 type P (isolate GK18))

>  <unit.label>
%

>  <result.value>
70.5

$$$$
>  <molecule>
Cc1ccccc1-n1nc(C)c2cc(C(=O)NC3CC3)sc21

>  <study.system>
Protein LANA1 (Human herpesvirus 8 type P (isolate GK18))

>  <unit.label>
%

>  <result.value>
0.464

$$$$
>  <molecule>
CCCCSc1[nH]c(=O)c(C(=O)OCC)cc1C#N

>  <study.system>
Protein LANA1 (Human herpesvirus 8 type P (isolate GK18))

>  <unit.label>
%

>  <result.value>
3.53

$$$$
>  <molecule>
CN(C(=O)c1cc2c(=O)n3ccccc3nc2s1)C1CCCCC1

>  <study.system>
Protein LANA1 (Human herpesvirus 8 type P (isolate GK18))

>  <unit.label>
%

>  <result.value>
-5.4

$$$$

Here's the next entry for you.
Requested read-out: inhibition. Entry: Cc1cccn2c(=O)c3cc(C(=O)NC4CCCCC4)sc3nc12
32.6

---

study.system: Protein LANA1 (Human herpesvirus 8 type P (isolate GK18)) (UniProt Q9QR71)
Sequence (Q9QR71 whole entry, looked up): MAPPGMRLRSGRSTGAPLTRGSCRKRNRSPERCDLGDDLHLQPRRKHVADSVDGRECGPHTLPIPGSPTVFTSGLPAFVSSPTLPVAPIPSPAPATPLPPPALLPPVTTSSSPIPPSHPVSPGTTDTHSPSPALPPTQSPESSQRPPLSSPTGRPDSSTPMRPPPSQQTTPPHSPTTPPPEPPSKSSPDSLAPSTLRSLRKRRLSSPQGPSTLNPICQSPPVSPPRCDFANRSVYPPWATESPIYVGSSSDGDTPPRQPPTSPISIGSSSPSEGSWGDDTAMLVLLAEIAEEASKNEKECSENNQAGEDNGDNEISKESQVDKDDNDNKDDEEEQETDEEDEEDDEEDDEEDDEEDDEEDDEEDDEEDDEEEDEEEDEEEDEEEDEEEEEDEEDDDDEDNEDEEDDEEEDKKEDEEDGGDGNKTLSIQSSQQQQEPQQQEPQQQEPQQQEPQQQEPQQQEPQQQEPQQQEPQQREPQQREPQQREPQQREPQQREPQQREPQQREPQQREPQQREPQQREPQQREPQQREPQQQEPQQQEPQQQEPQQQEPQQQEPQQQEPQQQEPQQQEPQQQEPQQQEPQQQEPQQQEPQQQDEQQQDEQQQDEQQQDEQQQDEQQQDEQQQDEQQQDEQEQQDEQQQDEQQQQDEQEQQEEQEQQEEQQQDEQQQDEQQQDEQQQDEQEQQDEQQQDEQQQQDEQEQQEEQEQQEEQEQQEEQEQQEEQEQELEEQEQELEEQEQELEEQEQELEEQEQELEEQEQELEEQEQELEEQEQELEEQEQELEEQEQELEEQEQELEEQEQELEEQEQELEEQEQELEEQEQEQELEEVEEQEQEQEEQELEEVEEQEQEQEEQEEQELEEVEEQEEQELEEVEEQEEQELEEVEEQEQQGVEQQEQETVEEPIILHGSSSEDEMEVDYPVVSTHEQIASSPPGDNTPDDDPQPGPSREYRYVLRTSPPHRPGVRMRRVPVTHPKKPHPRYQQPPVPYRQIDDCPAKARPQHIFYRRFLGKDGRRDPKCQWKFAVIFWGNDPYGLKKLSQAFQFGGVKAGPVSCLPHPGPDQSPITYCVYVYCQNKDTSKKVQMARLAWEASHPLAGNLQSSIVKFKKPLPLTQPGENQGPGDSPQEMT
protocol.details: blockers of LANA interaction with H2A/H2B – biochemical, FP readout, HTS, primary screen (AID 2629)
cond: cell-free LANA-H2A/H2B peptide, fluorescence polarization, concentration not given here
About 1,900 (0.59%) of roughly 320,000 compounds were called active. No stated cut-off is given here; in the data, active means inhibition mostly above about 10% (no sharp cut-off); inactive means mostly below about 6.7%. The sample holds actives, similar compounds and a random draw of the others, so the mix is not that of the screen.
Form entry, call: pick from 1 (active), 0 (inactive)

Some solved entries appear below for comparison.
>  <compound>
Cc1ccc2c(c1)-c1c(ssc1=S)C(C)(C)N2C(=O)CN1C(=O)c2ccccc2C1=O

>  <group>
0

$$$$
>  <compound>
COC(=O)c1ccc(CSc2ccc(S(=O)(=O)N3CCCCC3)cn2)cc1

>  <group>
0

$$$$

Test call for this compound, please: COC(=O)C(C)n1cnc2c(nnn2-c2ccc(F)cc2)c1=O (stereo not given)
0

Likewise for COC(=O)c1ccc(SCc2ccccc2)nc1 ?
1

Try this compound next: CCCCNC(=O)OCCSCCS(=O)(=O)c1ccc(Cl)cc1
0

One more compound: Cc1cccc(N2CC(C)Cn3c2nc2c3c(=O)n(CC(=O)OCc3ccccc3)c(=O)n2C)c1 (stereo not given)
0

Quick one: Cc1coc2c1c(C)cc1oc(=O)c(CC(=O)NCC(=O)N[C@H](C(=O)O)C(C)C)c(C)c12
0

---

Recorded inhibition by entry
study.system: Protein LANA1 (Human herpesvirus 8 type P (isolate GK18))
protocol.details: blockers of LANA interaction with H2A/H2B – biochemical, FP readout, HTS, primary screen (AID 2629)
cond: cell-free LANA-H2A/H2B peptide, fluorescence polarization, stronger effect = higher value, concentration not given here
The whole screen tested about 320,000 compounds, of which about 1,900 (0.59%) were called active. For the sample, actives were picked, then their nearest neighbours and some compounds at random.
Provide only the numeric value, understood in %.

Example results:
>  <molecule>
N/C(=N\c1nc2ccccc2o1)NC(=O)C(Cc1ccccc1)N1C(=O)c2ccccc2C1=O (configuration not stated)

>  <unit.label>
%

>  <result.value>
-0.102

$$$$
>  <molecule>
O=C(Nc1ccc(-c2cscn2)cc1)C1CCCN(Cc2ccc(CO)o2)C1 (configuration not stated)

>  <unit.label>
%

>  <result.value>
21.8

$$$$
>  <molecule>
COc1ccc(NC(=O)CCCC(=O)c2ccccc2)cc1

>  <unit.label>
%

>  <result.value>
2.03

$$$$

Which inhibition value belongs to O=C(NCCc1ccc(C(F)(F)F)cc1)c1ccc2c(c1)OCO2 ?
16.2

Please answer likewise for Nc1ncc(CN2CCCC(C(=O)Nc3ccc(-c4ccco4)cc3)C2)cn1 (configuration not stated)
3.49

---

study.system: Protein LANA1 (Human herpesvirus 8 type P (isolate GK18))
protocol.details: blockers of LANA interaction with H2A/H2B – biochemical, FP readout, HTS, primary screen (AID 2629)
cond: cell-free LANA-H2A/H2B peptide, fluorescence polarization, concentration not given here
The whole screen tested about 320,000 compounds, of which about 1,900 (0.59%) were called active. No stated cut-off is given here; in the data, active means inhibition mostly above about 10% (no sharp cut-off); inactive means mostly below about 6.7%. Many of the other results were omitted from the sample, so actives are more common in it than they were.
Choose one outcome from this list and give only that: 1 (yes) for active, 0 (no) for inactive

Solved cases (4 shown):
>  <compound>
COc1ccc(NC(=O)C2CCCN(S(=O)(=O)c3cccc4cccnc34)C2)cc1OC (stereo not given)

>  <study.system>
Protein LANA1 (Human herpesvirus 8 type P (isolate GK18))

>  <group>
0 (no)

$$$$
>  <compound>
COc1ccc(/C=C(/NC(=O)c2ccco2)C(=O)Nc2ccc(C(C)=O)cc2)cc1

>  <study.system>
Protein LANA1 (Human herpesvirus 8 type P (isolate GK18))

>  <group>
0 (no)

$$$$
>  <compound>
O=C(c1ccc2c(c1)OCO2)N1CCN(C(=O)c2ccco2)CC1

>  <study.system>
Protein LANA1 (Human herpesvirus 8 type P (isolate GK18))

>  <group>
0 (no)

$$$$
>  <compound>
Cc1ccc(NC(=O)/C(=C\c2ccccc2)NC(=O)c2ccco2)cc1

>  <study.system>
Protein LANA1 (Human herpesvirus 8 type P (isolate GK18))

>  <group>
1 (yes)

$$$$

Pending compound:
Recorded test call requested for CCCCNc1ccc(C(=O)Nc2cccc(C)n2)cc1[N+](=O)[O-]
0 (no)

---

study.system: Protein LANA1 (Human herpesvirus 8 type P (isolate GK18)) (UniProt Q9QR71)
protocol.details: blockers of LANA interaction with H2A/H2B – biochemical, FP readout, HTS, primary screen (AID 2629)
cond: cell-free LANA-H2A/H2B peptide, fluorescence polarization, concentration not given here
Among all 320,000 compounds or so, about 1,900 (0.59%) were called active. Cut-off read from the data, not from the text of the source: active = inhibition mostly above about 10% (no sharp cut-off); inactive = mostly below about 6.7%. The sample holds actives, similar compounds and a random draw of the others, so the mix is not that of the screen.
Would you mind answering with one of these outcomes? active, inactive

>  <molecule>
CCCC1C(c2ccccc2)C(C#N)(C#N)C2(C#N)CC1(N)NC2=O (stereo not given)

>  <group>
active

$$$$
>  <molecule>
COc1ccc(CCc2nnc(CCC(=O)NCc3cnn(-c4ccccc4C)c3)o2)cc1

>  <group>
inactive

$$$$
>  <molecule>
COC(=O)C1=C(C)NC2=C(C(=O)c3ccccc32)C1c1ccc(-c2ccc(C(=O)O)cc2)o1 (stereo not given)

>  <group>
inactive

$$$$

Please state the recorded outcome for this molecule: Cn1c(CCc2ccccc2)nnc1SCC(N)=O
inactive

Check COc1ccc(OC)c(NC(=O)CSc2nc(N)c(-c3ccccc3)c(=O)[nH]2)c1 too.
inactive

Let us now turn to CN(CC(=O)Nc1ccc(F)c(F)c1F)C(=O)Cn1cnc2c1c(=O)n(C)c(=O)n2C
inactive

Try this molecule next: O=C(c1cn2ccccc2n1)N1CCc2c([nH]c3ccccc23)C1c1ccccn1 (stereo not given)
inactive

Same read-out for Cn1c(=O)c2c(nc(NCCNC(=O)c3ccco3)n2Cc2ccccc2F)n(C)c1=O ?
inactive

Let us now turn to COc1ccc(C(=O)Nc2c(N)nc(SCC(=O)Nc3ccc(C(C)=O)cc3)[nH]c2=O)cc1
inactive

Entry Oc1ccccc1CNc1ncc(Br)cc1Br please
inactive

---

study.system: Protein LANA1 (Human herpesvirus 8 type P (isolate GK18))
protocol.details: blockers of LANA interaction with H2A/H2B – biochemical, FP readout, HTS, primary screen (AID 2629)
cond: cell-free LANA-H2A/H2B peptide, fluorescence polarization, stronger effect = higher value, concentration not given here
Screen size: about 320,000 compounds; about 1,900 (0.59%) were called active. Many of the other results were omitted from the sample, so actives are more common in it than they were.
property.label: inhibition (%)
Answer format: numeric, % implied, no suffix.

Use these answered entries as a reference point.
>  <compound>
CCc1ccccc1NC(=O)CN(C)C(=O)c1cc(C2CC2)nn1-c1ccccc1

>  <result.value>
-3.11

$$$$
>  <compound>
COC(=O)C1=C(C(=O)OC)C2(OC1c1ccc(Br)cc1)C(=O)c1ccccc1C2=O (stereo unspecified)

>  <result.value>
3.44

$$$$
>  <compound>
O=C(C1CCN(S(=O)(=O)Cc2ccccc2)CC1)N1CCCc2ccccc21

>  <result.value>
1.2

$$$$
>  <compound>
Oc1ccc2ccc3cccc[n+]3c2c1

>  <result.value>
94.4

$$$$
>  <compound>
CCOC(=O)N1CCN(CC(=O)Nc2ccc(F)cc2)CC1

>  <result.value>
-4.74

$$$$

Please examine the following record next.
Returns the measured inhibition for the input compound. Input: CCOC(=O)N1CCN(C(=O)Cn2cnc3ccccc3c2=O)CC1
3
